Taken from ChEMBL document CHEMBL1201861.

- Tested on: NCI-H1417;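 further: human NCI-H1417 cells, growth inhibition determined with a cell viability readout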
- Protocol Notes: cells
- Type: functional, cell-based, Homo sapiens
- Experimental Setup: Homo sapiens, NCI-H1417
- Description: SANGER: Inhibition of human NCI-H1417 cell growth in a cell viability assay.
pIC50: −log10 of the molar value.
Reported Metric: pIC50

Exam item: Bench note: what pIC50 did Cc1cc([N+](=O)[O-])ccc1NS(=O)(=O)c1cc(Cl)ccc1Cl show?
Marked response: 4.64

Exam item: Bench note: what pIC50 did CC(=O)O[C@H]1C(=O)[C@@]2(C)[C@H]([C@H](OC(=O)c3ccccc3)[C@]3(O)C[C@H](OC(=O)[C@H](O)[C@@H](NC(=O)c4ccccc4)c4ccccc4)C(C)=C1C3(C)C)[C@]1(OC(C)=O)CO[C@@H]1C[C@@H]2O [PACLITAXEL] show?
Marked response: < 6.99

Exam item: Bench note: what pIC50 did C#Cc1cccc(Nc2ncnc3cc(OCCOC)c(OCCOC)cc23)c1 [ERLOTINIB] show?
Marked response: < 5.70

Exam item: Bench note: what pIC50 did CCC/C=C/C=C/C(=O)O[C@H]1/C(=C/C(=O)OC)C[C@H]2C[C@H]([C@@H](C)O)OC(=O)C[C@H](O)C[C@@H]3C[C@H](OC(C)=O)C(C)(C)[C@](O)(C[C@@H]4C/C(=C/C(=O)OC)C[C@H](/C=C/C(C)(C)[C@]1(O)O2)O4)O3 [BRYOSTATIN 1] show?
Marked response: < 8.10

Exam item: Bench note: what pIC50 did COc1cc2ncn(-c3cc(OCc4ccccc4C(F)(F)F)c(C(N)=O)s3)c2cc1OC [GW843682X] show?
Marked response: < 6.59

---

- Test system: SW1710;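 further: growth inhibition of SW1710 cells, determined with a cell viability assay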
- Protocol Notes: cells
- Type: functional, cell-based, Homo sapiens
- Experimental Setup: Homo sapiens, SW1710
- Description: SANGER: Inhibition of human SW1710 cell growth in a cell viability assay.
Reported Metric: IC50

Exam item: Bench note: what IC50 did CN(C)C(=N)NC(=N)N show?
Marked response: > 20000 µM

Exam item: Bench note: what IC50 did Cn1cnc2c(F)c(Nc3ccc(Br)cc3Cl)c(C(=O)NOCCO)cc21 show?
Marked response: > 4 µM

Exam item: Bench note: what IC50 did Nc1ccn([C@@H]2O[C@H](CO)[C@@H](O)C2(F)F)c(=O)n1 show?
Marked response: < 0.004 µM

Exam item: Bench note: what IC50 did CC(C)c1ccccc1Cc1cc(C(=O)Nc2ccc(S(=O)(=O)c3ccccc3C(C)(C)C)cc2)c(O)c(O)c1O show?
Marked response: 0.388 µM

Exam item: Bench note: what IC50 did C=C(c1ccc(C(=O)O)cc1)c1cc2c(cc1C)C(C)(C)CCC2(C)C show?
Marked response: > 8 µM

---

Assign IC50 to each entry below.
- System: EFO-21;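 further: growth inhibition of EFO-21 cells measured with a viability assay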
- Protocol Notes: cells
- Type: functional, cell-based, Homo sapiens
- Experimental Setup: Homo sapiens, EFO-21
- Description: SANGER: Inhibition of human EFO-21 cell growth in a cell viability assay.
Counter-ions that a name gives are not always drawn.

Exam item: Bench note: what IC50 did CN(C)C(=N)NC(=N)N show?
Marked response: > 20000 µM

Exam item: Bench note: what IC50 did COc1cccc2c1C(=O)c1c(O)c3c(c(O)c1C2=O)C[C@@](O)(C(=O)CO)C[C@@H]3O[C@H]1C[C@H](N)[C@H](O)[C@H](C)O1 show?
Marked response: 0.362 µM

Exam item: Bench note: what IC50 did Oc1ccc2ccccc2c1SSc1c(O)ccc2ccccc12 show?
Marked response: > 32 µM

Exam item: Bench note: what IC50 did Cc1cn(-c2cc(NC(=O)c3ccc(C)c(Nc4nccc(-c5cccnc5)n4)c3)cc(C(F)(F)F)c2)cn1 show?
Marked response: > 2 µM

Exam item: Bench note: what IC50 did CS(=O)(=O)c1ccc(C(=O)Nc2ccc(Cl)c(-c3ccccn3)c2)c(Cl)c1 show?
Marked response: > 10 µM

Exam item: Bench note: what IC50 did O=C(O)c1ccc(-c2c[nH]c3ncc(-c4ccccc4)cc23)cc1C1CCCC1 show?
Marked response: > 16 µM

Exam item: Bench note: what IC50 did Nc1ccn([C@@H]2O[C@H](CO)[C@@H](O)C2(F)F)c(=O)n1 show?
Marked response: 0.0537 µM

Exam item: Bench note: what IC50 did Nc1cccc2c1CN(C1CCC(=O)NC1=O)C2=O (stereo unspecified) [LENALIDOMIDE] show?
Marked response: > 5 µM

Exam item: Bench note: what IC50 did Cc1cc([N+](=O)[O-])ccc1NS(=O)(=O)c1cc(Cl)ccc1Cl show?
Marked response: 11.1 µM

Exam item: Bench note: what IC50 did N#Cc1c(O)c2c(-c3ccc(-c4ccccc4O)cc3)csc2[nH]c1=O show?
Marked response: > 1.02 µM

Exam item: Bench note: what IC50 did COC1=CC(c2cc3ccccc3[nH]2)=N/C1=C\c1[nH]c(C)cc1C [OBATOCLAX MESYLATE] show?
Marked response: 0.841 µM

---

Assign pIC50 to each entry below.
- Tested on: BT-474
- Protocol Notes: cells
- Type: functional, cell-based, Homo sapiens
- Experimental Setup: Homo sapiens, BT-474
- Description: SANGER: Inhibition of human BT-474 cell growth in a cell viability assay.
pIC50: −log10 of the molar value. Where a name gives a salt, the structure may show the parent alone.

Exam item: Bench note: what pIC50 did COC1=CC(c2cc3ccccc3[nH]2)=N/C1=C\c1[nH]c(C)cc1C [OBATOCLAX MESYLATE] show?
Marked response: 6.76

Exam item: Bench note: what pIC50 did Cc1cn(-c2cc(NC(=O)c3ccc(C)c(Nc4nccc(-c5cccnc5)n4)c3)cc(C(F)(F)F)c2)cn1 show?
Marked response: < 5.70

Exam item: Bench note: what pIC50 did C#Cc1cccc(Nc2ncnc3cc(OCCOC)c(OCCOC)cc23)c1 show?
Marked response: < 5.70

Exam item: Bench note: what pIC50 did CC(=O)O[C@H]1C(=O)[C@@]2(C)[C@H]([C@H](OC(=O)c3ccccc3)[C@]3(O)C[C@H](OC(=O)[C@H](O)[C@@H](NC(=O)c4ccccc4)c4ccccc4)C(C)=C1C3(C)C)[C@]1(OC(C)=O)CO[C@@H]1C[C@@H]2O show?
Marked response: < 6.99

---

- System: DK-MG
- Protocol Notes: cells
- Type: functional, cell-based, Homo sapiens
- Experimental Setup: Homo sapiens, DK-MG
- Description: SANGER: Inhibition of human DK-MG cell growth in a cell viability assay.
Counter-ions that a name gives are not always drawn.
Reported Metric: IC50

Exam item: Request - read-out IC50 | tested on DK-MG | compound O=C(O)c1ccc(-c2c[nH]c3ncc(-c4ccccc4)cc23)cc1C1CCCC1
Marked response: > 16 µM

Exam item: Request - read-out IC50 | tested on DK-MG | compound COc1cc2c(Nc3ccc(NC(=O)c4ccccc4)cc3)ncnc2cc1OCCCN1CCOCC1
Marked response: > 4 µM

Exam item: Request - read-out IC50 | tested on DK-MG | compound Nc1cccc2c1CN(C1CCC(=O)NC1=O)C2=O (stereo unspecified) [LENALIDOMIDE]
Marked response: > 5 µM

Exam item: Request - read-out IC50 | tested on DK-MG | compound CC(C)CCN1c2nc(Nc3cc(F)c(O)c(F)c3)ncc2N(C)C(=O)C1C (stereo unspecified)
Marked response: > 5 µM

Exam item: Request - read-out IC50 | tested on DK-MG | compound Cc1cc([N+](=O)[O-])ccc1NS(=O)(=O)c1cc(Cl)ccc1Cl
Marked response: 12.3 µM

Exam item: Request - read-out IC50 | tested on DK-MG | compound COC1=CC(c2cc3ccccc3[nH]2)=N/C1=C\c1[nH]c(C)cc1C [OBATOCLAX MESYLATE];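 further: growth inhibition of DK-MG cells, read out with a cell viability assay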
Marked response: 0.71 µM

---

Assign pIC50 to each entry below.
- Tested on: RPMI-8226
- Protocol Notes: cells
- Assay type: functional, cell-based, Homo sapiens
- Experimental Setup: Homo sapiens, RPMI-8226
- Description: SANGER: Inhibition of human RPMI-8226 cell growth in a cell viability assay.
Structures can show the parent of a compound that is named as a salt.
Formally, pIC50 is defined as -log10 of the concentration c, with c in mol/L.

Exam item: Bench note: what pIC50 did COC1=CC(c2cc3ccccc3[nH]2)=N/C1=C\c1[nH]c(C)cc1C [OBATOCLAX MESYLATE] show?
Marked response: 6.50

Exam item: Bench note: what pIC50 did OCCCNc1cc(-c2ccnc(Nc3cccc(Cl)c3)n2)ccn1 show?
Marked response: 6.89

Exam item: Bench note: what pIC50 did N#Cc1c(O)c2c(-c3ccc(-c4ccccc4O)cc3)csc2[nH]c1=O show?
Marked response: 6.61

Exam item: Bench note: what pIC50 did CC(=O)O[C@H]1C(=O)[C@@]2(C)[C@H]([C@H](OC(=O)c3ccccc3)[C@]3(O)C[C@H](OC(=O)[C@H](O)[C@@H](NC(=O)c4ccccc4)c4ccccc4)C(C)=C1C3(C)C)[C@]1(OC(C)=O)CO[C@@H]1C[C@@H]2O show?
Marked response: 7.96

---

Assign IC50 to each entry below.
- Tested on: Ramos-2G6-4C10;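 further: growth inhibition of the cell line, measured by a cell viability read-out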
- Protocol Notes: cells
- Type: functional, cell-based, Homo sapiens
- Experimental Setup: Homo sapiens, Ramos-2G6-4C10
- Description: SANGER: Inhibition of human Ramos-2G6-4C10 cell growth in a cell viability assay.
Structures can show the parent of a compound that is named as a salt.
# number only, unit nM dropped from output

Exam item: Bench note: what IC50 did N[C@@H](CSC(c1ccccc1)(c1ccccc1)c1ccccc1)C(=O)O show?
Marked response: 1550

Exam item: Bench note: what IC50 did COC1=CC(c2cc3ccccc3[nH]2)=N/C1=C\c1[nH]c(C)cc1C [OBATOCLAX MESYLATE] show?
Marked response: 129

Exam item: Bench note: what IC50 did COc1cc2c(Nc3ccc(NC(=O)c4ccccc4)cc3)ncnc2cc1OCCCN1CCOCC1 show?
Marked response: 1410

Exam item: Bench note: what IC50 did COc1cc2ncn(-c3cc(OCc4ccccc4C(F)(F)F)c(C(N)=O)s3)c2cc1OC [GW843682X] show?
Marked response: 37.4
